# procedure summary: yeast display, Sf9 membrane polyspecificity reagent, FACS + sequencing; frameworks hold sequencing errors
endpoint name: polyreactivity (PSR sort gate)

seq_string=QVQLVESGGGLVQAGGSLRLSCAASGLIFRVYTMGWYRQAPGKERELVSAITGRGGRTYYADSVKGRFTISRDNAKNTVYLQMNSLKPEDTAVYYCATGGRYQQAAYTGYNYWGQGTQVTVSS recorded_measurement="high polyreactivity"
seq_string=QVQLVESGGRLVQAGGSLRLSCAASGSNFETYDMGWYRQAPRKERELVAAITLSGGSTYYADSVKGRFTISRDNAKNTVYLQMNSLKPEDTAVYYCAADDSGVKVWEGDYWGQGTQVTVSS recorded_measurement="low polyreactivity"
seq_string=QVQLVESGGGLVQAGGSLRLSCDASGSIFGRNAMGWYRQAPGKERELVAAISWRGGRTYYADSVKGRFTISRDNAKNTVYLQMNSLKPEDTAVYYCAATSGRPYEYGYWGQGTQVTVSS recorded_measurement="high polyreactivity"
seq_string=QVQLVESGGGLVQAGGSLRLSCAASGRTSYGYAIGWYRQAPGKERELVAAITYGGGSTYYADSVKGRFTISRDNEKNTVYLQMNSLKPEDTAVYYCAADRTGSTLYTIRYYYWGQGTQVTVSS recorded_measurement="low polyreactivity"
seq_string=QVHLVESGGGLVQAGGSLRLSCAASGSTFYANAMGWYRQAPGTERELVAAITSGGSTNYADSVKGRFTISRDNAKNTFYLQMNSLKPEDTAVYYCAADGGDQERGDYWGQGTQVTVSS recorded_measurement="low polyreactivity"
